From: patent US20240317859A1

assayed_system: human PD-1 (wild-type), expressed on cells (human, UniProt Q15116 25-288)
Sequence (Q15116 25-288 limits assumed): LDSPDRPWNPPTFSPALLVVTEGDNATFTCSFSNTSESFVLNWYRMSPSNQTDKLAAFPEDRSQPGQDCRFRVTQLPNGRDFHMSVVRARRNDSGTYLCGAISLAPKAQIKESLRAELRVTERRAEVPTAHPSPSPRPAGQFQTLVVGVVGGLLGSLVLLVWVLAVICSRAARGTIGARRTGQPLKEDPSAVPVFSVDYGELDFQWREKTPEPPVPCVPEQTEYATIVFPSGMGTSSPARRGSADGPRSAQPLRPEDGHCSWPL
test_summary: cell-based or functional assay
If the reported Cell-cell contact assay equals or exceeds 80 ng/mL, assign yes. If not, assign no.

Has HM268-L7 (antibody, human IgG1, V domains shown, also called humanized HM268, VH ver.L / VL ver.7) VH: QVQLVQSGPEVKKPGASVKVVCKTSGYTFTSYYIQWVRQVPGQGLEWMGWIYFGDASTKYNEKFKGRVTMTADTSTSTAYMELRSLRSDDTAVYYCASYYGSYFDYWGQGTTVTVSS VL: DIQMTQNTSSLSASVGDRVTITCRASQDISNYLNWYQQKPDGTVKLLIYSTSRLHSGVPSRFSGSGSGTDYTLTISSLEQEDFATYYCQQGSTLPFTFGQGTKLEIK a recorded Cell-cell contact assay greater than or equal to 80 ng/mL?
yes

Further, for HM268-J7 (antibody, human IgG1, V domains shown, also called humanized HM268, VH ver.J / VL ver.7) VH: QVQLVQSGPEVKKPGASVKVVCKTSGYTFTSYYIQWVRQVPGQGLEWMGWIYFGDASTKYNEKFKGKTTLTADKSTSTAYMELRSLRSDDTAVYYCASYYGSYFDYWGQGTTVTVSS VL: DIQMTQNTSSLSASVGDRVTITCRASQDISNYLNWYQQKPDGTVKLLIYSTSRLHSGVPSRFSGSGSGTDYTLTISSLEQEDFATYYCQQGSTLPFTFGQGTKLEIK ?
no

Further, for HM268-L9 (antibody, human IgG1, V domains shown, also called humanized HM268, VH ver.L / VL ver.9) VH: QVQLVQSGPEVKKPGASVKVVCKTSGYTFTSYYIQWVRQVPGQGLEWMGWIYFGDASTKYNEKFKGRVTMTADTSTSTAYMELRSLRSDDTAVYYCASYYGSYFDYWGQGTTVTVSS VL: DIQMTQSPSSLSASVGDRVTITCRASQDISNYLNWYQQKPGKAPKLLIYSTSRLHSGVPSRFSGSGSGTDYTLTISSLQPEDFATYYCQQGSTLPFTFGQGTKLEIK ?
yes

Further, for HM268-M8 (antibody, human IgG1, V domains shown, also called humanized HM268, VH ver.M / VL ver.8) VH: QVQLVQSGPEVKKPGASVKVVCKASGYTFTSYYIQWVRQVPGQGLEWMGWIYFGDASTKYNEKFKGRVTMTADTSTSTAYMELRSLRSDDTAVYYCASYYGSYFDYWGQGTTVTVSS VL: DIQMTQSPSSLSASVGDRVTITCRASQDISNYLNWYQQKPDGTVKLLIYSTSRLHSGVPSRFSGSGSGTDYTLTISSLQPEDFATYYCQQGSTLPFTFGQGTKLEIK ?
no

Further, for HM268-M9 (antibody, human IgG1, V domains shown, also called humanized HM268, VH ver.M / VL ver.9) VH: QVQLVQSGPEVKKPGASVKVVCKASGYTFTSYYIQWVRQVPGQGLEWMGWIYFGDASTKYNEKFKGRVTMTADTSTSTAYMELRSLRSDDTAVYYCASYYGSYFDYWGQGTTVTVSS VL: DIQMTQSPSSLSASVGDRVTITCRASQDISNYLNWYQQKPGKAPKLLIYSTSRLHSGVPSRFSGSGSGTDYTLTISSLQPEDFATYYCQQGSTLPFTFGQGTKLEIK ?
yes

Further, for HM268-K9 (antibody, human IgG1, V domains shown, also called humanized HM268, VH ver.K / VL ver.9) VH: QVQLVQSGPEVKKPGASVKVVCKTSGYTFTSYYIQWLKQRPGQGLEWIGWIYFGDASTKYNEKFKGRVTMTADKSTSTAYMELRSLRSDDTAVYYCASYYGSYFDYWGQGTTVTVSS VL: DIQMTQSPSSLSASVGDRVTITCRASQDISNYLNWYQQKPGKAPKLLIYSTSRLHSGVPSRFSGSGSGTDYTLTISSLQPEDFATYYCQQGSTLPFTFGQGTKLEIK ?
yes

Further, for HM268-J8 (antibody, human IgG1, V domains shown, also called humanized HM268, VH ver.J / VL ver.8) VH: QVQLVQSGPEVKKPGASVKVVCKTSGYTFTSYYIQWVRQVPGQGLEWMGWIYFGDASTKYNEKFKGKTTLTADKSTSTAYMELRSLRSDDTAVYYCASYYGSYFDYWGQGTTVTVSS VL: DIQMTQSPSSLSASVGDRVTITCRASQDISNYLNWYQQKPDGTVKLLIYSTSRLHSGVPSRFSGSGSGTDYTLTISSLQPEDFATYYCQQGSTLPFTFGQGTKLEIK ?
no
